Overview of recorded pKd for various sequences
Target: HLA-A*03:01
Assay: IEDB peptide-MHC binding, purified MHC/competitive/radioactivity; filed as Kd, often an IC50 or EC50 that approximates it; bounds were set here for any values at or beyond the usual limits of such assays
Details: source organism: Vaccinia virus WR
// field semantics: pKd = negative decimal log of concentration (mol/L)

# input_sequence, observed
measured = [
    ("TQMRTPLHK", 5.93),
    ("LILSNKLLY", 7.86),
    ("KIKLILANK", 7.67),
    ("SIGNVTRLFY", 8.53),
]

Param item = YSKKFQESFY ; retrieve measured pKd.
5.57

Param item = GTIAGGVCY ; retrieve measured pKd.
5.39

Param item = YILQLIRHGR ; retrieve measured pKd.
4.95

Param item = VVMHINSPFK ; retrieve measured pKd.
8.08

Param item = AAGIIILMEY ; retrieve measured pKd.
5.20
